// data source = paper PMC5114558

Target: T1, KDM4B double tudor domain (KDM4B-DTD), HaloTag-tagged, wild type (human, UniProt O94953 917-1031)
T1 chain: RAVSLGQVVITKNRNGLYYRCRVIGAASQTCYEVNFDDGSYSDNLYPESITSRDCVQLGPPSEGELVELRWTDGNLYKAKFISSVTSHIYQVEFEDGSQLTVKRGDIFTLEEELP
Test: FP
No end group written: not given here.
The entries below are paired with their reported pKd.
Note on units: pKd is unitless, being -log10 of a concentration expressed in mol/L.

INSERT INTO assay_data (binder, numeric_result) VALUES
  ('AKRHRK(Me3)VLRDN (also: fluorescein label, end not given here) [H4K20me3 peptide, fluorescein-labelled]', 4.22);

Turning to the following binder.
Which pKd reading was recorded for the binder ARKSTGGK(Me3)APRKQLATK (also: fluorescein label, end not given here) [H3K14me3 peptide, fluorescein-labelled] ?
3.78
